FYI, the data here is from patent US12110279B2.

target_or_system: recombinant human DAO (diamine oxidase) (Homo sapiens, UniProt P19801)
Construct: purchased R&D systems
Sequence (P19801 20-751): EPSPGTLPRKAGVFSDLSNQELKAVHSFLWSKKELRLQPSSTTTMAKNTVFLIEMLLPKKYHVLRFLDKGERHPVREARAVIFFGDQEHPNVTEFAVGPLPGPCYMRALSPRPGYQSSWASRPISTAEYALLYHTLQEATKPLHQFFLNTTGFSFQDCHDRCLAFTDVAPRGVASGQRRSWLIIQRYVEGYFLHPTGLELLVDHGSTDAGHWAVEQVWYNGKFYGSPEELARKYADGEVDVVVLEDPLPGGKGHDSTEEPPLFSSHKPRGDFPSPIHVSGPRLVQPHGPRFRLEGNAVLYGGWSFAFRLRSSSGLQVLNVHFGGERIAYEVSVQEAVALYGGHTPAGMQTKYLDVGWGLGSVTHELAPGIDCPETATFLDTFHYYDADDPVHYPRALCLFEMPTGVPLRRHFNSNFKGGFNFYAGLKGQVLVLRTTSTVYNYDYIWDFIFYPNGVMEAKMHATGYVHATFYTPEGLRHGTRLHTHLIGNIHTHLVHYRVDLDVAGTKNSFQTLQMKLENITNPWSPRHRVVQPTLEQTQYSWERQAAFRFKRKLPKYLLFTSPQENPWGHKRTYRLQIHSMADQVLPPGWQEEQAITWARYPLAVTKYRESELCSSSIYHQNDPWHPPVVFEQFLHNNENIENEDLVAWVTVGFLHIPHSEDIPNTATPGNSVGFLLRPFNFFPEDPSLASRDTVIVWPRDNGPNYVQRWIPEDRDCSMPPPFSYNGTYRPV
protocol_details: Amplex Red HRP-coupled amine oxidase activity evaluation, recombinant human DAO
Format: biochemical
assay_setup: substrate 1 mM putrescine; read-out: Inhibitory Activity (IC50, nM) DAO
Structures can show the parent of a compound that is named as a salt.
Each entry belongs to exactly one class, chosen by where its IC50 falls: category 1: < 60 nM; category 2: ≥ 60 nM and < 1000 nM; category 3: ≥ 1000 nM

Worked cases, answers included:
Cc1cc(-c2ccc(Cn3nnn(CC(CN)=C(F)F)c3=O)s2)cc2c1NC(=O)CC2 [Example 45, trifluoroacetate]	category 3
CS(=O)(=O)c1ccc(-c2ccc(Cn3nnn(CC(CN)=C(F)F)c3=O)s2)cc1 [Example 43, trifluoroacetate]	category 2
CS(=O)(=O)c1ccc(-c2csc(-n3nnn(CC(CN)=C(F)F)c3=O)c2)cc1 [Example 35, trifluoroacetate]	category 3
CCn1cc(-c2ccc(Cn3nnn(CC(CN)=C(F)F)c3=O)s2)cn1 [Example 47, trifluoroacetate]	category 3
CCn1cc(-c2ccc(C)c(-n3nnn(CC(CN)=C(F)F)c3=O)n2)ccc1=O [Example 24, trifluoroacetate]	category 3

Turning now to a further record.
Given Cc1cc(-c2ccc(-n3nnn(CC(CN)=C(F)F)c3=O)cc2)cc2c1NC(=O)CC2 [Example 20, trifluoroacetate] , name the class its IC50 places it in.
category 3
